# key: entry, value: plasma radioactive counts, MEAN
# procedure summary: In vivo metabolism test of 177Lu-labeled complex in SD rats (plasma radioactive counts)
# experimental context: mean of rats, 4 h after tail vein injection
readout kind: plasma radioactive counts, MEAN (cpm)

1) O=C([O-])CN1CCN(CC(=O)[O-])CCN(CC(=O)N2CCc3cc(C(=O)NC(Cc4ccc5ccccc5c4)C(=O)NCCCCC(NC(=O)NC(CCC(=O)O)C(=O)O)C(=O)O)ccc3C2)CCN(CC(=O)[O-])CC1.[177Lu+3] (centres unmarked) [^177Lu-E3] = 165
2) O=C([O-])CN1CCN(CC(=O)[O-])CCN(CC(=O)Nc2nc3cc(C(=O)NC(Cc4ccc5ccccc5c4)C(=O)NCCCCC(NC(=O)NC(CCC(=O)O)C(=O)O)C(=O)O)ccc3s2)CCN(CC(=O)[O-])CC1.[177Lu+3] (centres unmarked) [^177Lu-E1] = 239

###

# Test system: PSMA-positive cells LNCap
# procedure summary: Uptake of labeled compounds by PSMA-positive cells LNCap
# Assay type: cell-based
# experimental context: 0.1 nM, 37° C., 0.5 h
Some molecules, each annotated with its measured uptake by LNCap cells.
readout kind: uptake by LNCap cells (cpm)

1. O=C([O-])CN1CCN(CC(=O)[O-])CCN(CC(=O)NC23CC(C(=O)NC(Cc4ccc5ccccc5c4)C(=O)NCCCCC(NC(=O)NC(CCC(=O)O)C(=O)O)C(=O)O)(C2)C3)CCN(CC(=O)[O-])CC1.[177Lu+3] (stereo not drawn) [^177Lu-E14] = 28
2. O=C([O-])CN1CCN(CC(=O)[O-])CCN(CC(=O)NCC2CCC(C(=O)N[C@@H](Cc3ccc4ccccc4c3)C(=O)NCCCC[C@H](NC(=O)N[C@@H](CCC(=O)O)C(=O)O)C(=O)O)CC2)CCN(CC(=O)[O-])CC1.[177Lu+3] (stereo partly drawn) [^177Lu-PSMA-617, reference compound] = 49
3. O=C([O-])CN1CCN(CC(=O)[O-])CCN(CC(=O)N2CCc3cc(C(=O)NC(Cc4ccc5ccccc5c4)C(=O)NCCCCC(NC(=O)NC(CCC(=O)O)C(=O)O)C(=O)O)ccc3C2)CCN(CC(=O)[O-])CC1.[177Lu+3] (stereo not drawn) [^177Lu-E3] = 48
4. O=C([O-])CN1CCN(CC(=O)[O-])CCN(CC(=O)N2CCC3(CCC(C(=O)NC(Cc4ccc5ccccc5c4)C(=O)NCCCCC(NC(=O)NC(CCC(=O)O)C(=O)O)C(=O)O)CC3)CC2)CCN(CC(=O)[O-])CC1.[177Lu+3] (stereo not drawn) [^177Lu-E9] = 56
5. O=C([O-])CN1CCN(CC(=O)[O-])CCN(CC(=O)N2CC3(CCC(C(=O)NC(Cc4ccc5ccccc5c4)C(=O)NCCCCC(NC(=O)NC(CCC(=O)O)C(=O)O)C(=O)O)CC3)C2)CCN(CC(=O)[O-])CC1.[177Lu+3] (stereo not drawn) [^177Lu-E2] = 29
6. O=C([O-])CN1CCN(CC(=O)[O-])CCN(CC(=O)Nc2nc3cc(C(=O)NC(Cc4ccc5ccccc5c4)C(=O)NCCCCC(NC(=O)NC(CCC(=O)O)C(=O)O)C(=O)O)ccc3s2)CCN(CC(=O)[O-])CC1.[177Lu+3] (stereo not drawn) [^177Lu-E1] = 39

FYI, the data here is from patent US20240366813A1.
